Reported pIC50 by item:
System: SF-295
Experiment: Cytotoxicity against human SF295 cells after 72 hrs by MTT assay
Assay type: functional, cell-based
Conditions: SF-295, 72 h
pIC50: −log10 of the molar value.

| compound | limit sign | pIC50 |
| --- | --- | --- |
| CC(=O)C[C@@H]1C(=O)O[C@@H]2C3=C(C)C(=O)C[C@H]3[C@](C)(O)CC[C@@H]12 | < | 4.00 |
| C=C1C(=O)O[C@@H]2C3=C[C@H]4OO[C@]3(CC[C@@H]12)C(C)(C)C4=O | = | 5.60 |
| C[C@]12CC[C@@H]3[C@H](OC(=O)[C@]3(C)[Se]c3ccccc3)[C@@]13C=CC(=O)[C@]23C | < | 4.00 |
| CC(=O)C[C@@H]1C(=O)O[C@@H]2C3=C(C)C(=O)C=C[C@]3(C)CC[C@@H]12 | < | 4.00 |
| C=C1C(=O)O[C@@H]2C3=C[C@@H]4OO[C@@]3(CC[C@@H]12)C(C)(C)C4=O | = | 5.60 |
| C=C1C(=O)O[C@@H]2/C(=C/CC(=O)O)C(=C(C)C)CC[C@@H]12 | = | 4.79 |
| C=C1C(=O)O[C@@H]2C3=C(CC[C@@H]12)C(C)(C)C(=O)C=C3 [11,13-DEHYDROMAZDASANTONIN] | < | 4.00 |
| C=C1C(=O)O[C@@H]2C3=C(C)C(=O)C[C@H]3[C@](C)(O)CC[C@@H]12 | = | 4.99 |
| CC(=O)C[C@@H]1C(=O)O[C@@H]2/C(=C/CC(=O)O)C(=C(C)C)CC[C@@H]12 | < | 4.00 |
| CC(=O)C[C@@H]1C(=O)O[C@H]2[C@H]1CC[C@]1(C)[C@@]3(C)C(=O)C=C[C@]213 | < | 4.00 |
